Target: β-lactamase, Ent. Cloacae P99 (Enterobacter cloacae, UniProt P05364)
Construct: preparation not described
Sequence (P05364 21-381): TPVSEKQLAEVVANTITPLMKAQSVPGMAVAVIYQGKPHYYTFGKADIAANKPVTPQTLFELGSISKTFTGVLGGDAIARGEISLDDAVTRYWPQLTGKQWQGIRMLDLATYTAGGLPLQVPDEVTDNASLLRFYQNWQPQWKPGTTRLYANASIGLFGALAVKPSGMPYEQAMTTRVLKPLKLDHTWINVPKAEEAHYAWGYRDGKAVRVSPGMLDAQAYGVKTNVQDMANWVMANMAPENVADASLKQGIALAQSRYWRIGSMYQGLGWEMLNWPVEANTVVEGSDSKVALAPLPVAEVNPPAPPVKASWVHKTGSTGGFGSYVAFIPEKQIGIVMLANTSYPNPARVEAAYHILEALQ
Assay: β-Lactamase inhibition, automated hydroxyamine assay
Assay type: biochemical
Conditions: at 20 μg/ml, read-out: amount of inhibition at maximum concentration
Description: Method was automated hydroxyamine assay except for compounds marked + which were tested using the automated chromagenic substrate assay. Results are presented as concentration of compounds in μg/ml for 50% inhibition of enzyme, except a percentage indicates amount of inhibition at maximum concentration of 20 μg/ml (50 μg/ml for asterisked figures).
measuredQuantity: inhibition at 20 µg/mL (%)

>>> testresult("COC(=O)C=CCC1C(=O)N2C1CC(Cl)([S+]([O-])c1ccccc1)C2C(=O)OCc1ccccc1 (stereo not shown)")
25
>>> testresult("CC(=O)NCC[S+]([O-])C1=C(C(=O)OCc2ccccc2)N2C(=O)CC2C1 (stereo not shown)")
16
>>> testresult("CC[S+]([O-])C1=C(C(=O)OCC(=O)c2ccc(Br)cc2)N2C(=O)C(CC=CC(=O)OC)C2C1 (single isomer, unassigned)")
31
>>> testresult("COC(=O)C=CCC1C(=O)N2C(C(=O)OCc3ccccc3)=C([S+]([O-])c3ccccc3)CC12 (stereo not shown)")
23
